System: HEK-293T
test protocol: Multiplex assay against HEK293T
Assay type: toxicity, cell-based
reported conditions: human, 48 h, 1 µM, compound concentration 1 uM, replicate 1
Would you kindly list Population Healthy Nuclei (%) for each of these molecules?
Record the value in %, omitting the unit from your answer.

// query Population Healthy Nuclei (%) value for entry "CN(C)CCCc1cc(C(=O)Nc2ccc(-c3ccncc3)cc2)ccc1O.Cl.Cl"
81

// query Population Healthy Nuclei (%) value for entry "CN(C)c1ccnc2sc3c(=O)n(N4CCCCCC4)cnc3c12"
78

// query Population Healthy Nuclei (%) value for entry "Cc1ccc(F)cc1C(=O)Nc1ccc(C(=O)N2Cc3cccn3Cc3ccccc32)c(Cl)c1"
80

// query Population Healthy Nuclei (%) value for entry "CC(C)(C)c1ccc(S(=O)(=O)Nc2ccc(Cl)cc2C(=O)c2cc[n+]([O-])cc2)cc1"
76

// query Population Healthy Nuclei (%) value for entry "Cc1ccc(-c2ccc(F)cc2COc2ccc(CCC(=O)O)cc2)cc1"
79

// query Population Healthy Nuclei (%) value for entry "Cc1nc2ccc(Oc3ccc(F)cc3)cc2c(=O)n1C[C@H]1CCCN(C(C)C)C1.Cl"
75

----------
Would you kindly list Population Normal (%) for each of these compounds?
Test system: U2OS
test protocol: Multiplex assay against U2OS
Assay type: toxicity, cell-based
reported conditions: human, 24 h, 1 µM, compound concentration 1 uM, replicate 1
Record the value in %, omitting the unit from your answer.

// query Population Normal (%) value for entry "Cc1ccc(-c2ccc(F)cc2COc2ccc(CCC(=O)O)cc2)cc1"
97

// query Population Normal (%) value for entry "CN1CCN(c2nc3cc(C(F)(F)F)ccc3n3cccc23)CC1.O=C(O)/C=C\C(=O)O.O=C(O)/C=C\C(=O)O"
97

// query Population Normal (%) value for entry Cl.Clc1ccc2nsnc2c1NC1=NCCN1 [TIZANIDINE HYDROCHLORIDE]
99

// query Population Normal (%) value for entry COc1ccc2c(c1)C(C(=O)N(Cc1ccc(N(C)C)cc1)c1ccc(C(C)C)cc1)CCC2.Cl (stereo unspecified)
95

// query Population Normal (%) value for entry "N[C@@]1(C(=O)O)CO[C@H]2[C@H](C(=O)O)[C@H]21"
98

// query Population Normal (%) value for entry "O=C(O)c1cc2ccccc2c(Cc2c(O)c(C(=O)O)cc3ccccc23)c1O"
98

// query Population Normal (%) value for entry "O=C(NCCO)c1cccc(-c2cc(Nc3ccc(OC(F)(F)F)cc3)ncn2)c1"
98

// query Population Normal (%) value for entry "C[C@@H]1C[C@H]2[C@@H]3CCC4=CC(=O)C=C[C@]4(C)[C@@]3(F)[C@@H](O)C[C@]2(C)[C@@]1(O)C(=O)CO"
97

// query Population Normal (%) value for entry "CC(C)(C)c1ccc(S(=O)(=O)Nc2ccc(Cl)cc2C(=O)c2cc[n+]([O-])cc2)cc1"
98

// query Population Normal (%) value for entry "N#Cc1c(N)nc(SCc2csc(-c3ccc(Cl)cc3)n2)c(C#N)c1-c1ccc(OCCO)cc1"
96

// query Population Normal (%) value for entry "CN(C)CCCc1cc(C(=O)Nc2ccc(-c3ccncc3)cc2)ccc1O.Cl.Cl"
97

// query Population Normal (%) value for entry "CN(C)c1ccnc2sc3c(=O)n(N4CCCCCC4)cnc3c12"
97

// query Population Normal (%) value for entry Cc1ccccc1C(=O)Nc1ccc(C(=O)N2CCCC(N(C)C)c3ccccc32)cc1.Cl (stereo unspecified)
99

// query Population Normal (%) value for entry CCCN1CCC[C@@H]2Cc3n[nH]cc3C[C@H]21.Cl [QUINPIROLE HYDROCHLORIDE]
98

// query Population Normal (%) value for entry "Cc1ccc(/C(=C\CN2CCCC2)c2ccccn2)cc1"
98

// query Population Normal (%) value for entry Cc1ccc(C(C)(O)c2nc3ccccc3s2)c(C)c1 (stereo unspecified)
98
